tested on: tobacco (Nicotiana tabacum cv. Xenthi) leaf explants; test: Effect on growth of tobacco leaf explants (fresh weight increase); type: cell-based; conditions: 40 μM; average after 3 weeks in culture
Measured metric: Increase in Fresh Weight (g)
Provide the reading as a plain figure in g.

- Nc1ncnc2c1ncn2[C@@H]1O[C@H](CO)[C@@H](O)[C@H]1O: 0.95
- Nc1ncnc2c1ncn2[C@@H]1O[C@H](CO)[C@@H](O)[C@@H]1O: 0.10

Now consider a different compound.
Summary for this compound, Nc1ncnc2c1ncn2[C@H]1C[C@H](O)[C@@H](CO)O1 : Increase in Fresh Weight is 0.74

* * *

test system: plant cells, such as soybean (SB-1), tobacco and Brassica sp.; experiment: Inhibition of plant cell growth by deoxyadenosine and analogs in culture medium; type: cell-based
Measured metric: growth of plant cells in presence of compound in culture medium

- Nc1nc(Cl)nc2c1ncn2[C@@H]1O[C@H](CO)[C@@H](O)[C@H]1O: inhibited
- Nc1ncnc2c1ncn2[C@@H]1O[C@H](CO)[C@H](O)[C@H]1O: inhibited
- Nc1ncnc2c1ncn2[C@@H]1O[C@H](CO)[C@@H](O)[C@@H]1O: inhibited
- Nc1ncnc2c1ncn2[C@@H]1O[C@H](CO)C[C@H]1O [Cordycepin, 3'-deoxyadenosine]: inhibited
- COc1ncnc2c1ncn2[C@@H]1O[C@H](CO)[C@@H](O)[C@H]1O [6-methoxypurine riboside]: inhibited
- Nc1ncnc2c1ncn2[C@H]1CC[C@@H](CO)O1: inhibited
- Nc1nc(N)c2ncn([C@@H]3O[C@H](CO)[C@@H](O)[C@H]3O)c2n1 [2,6-diaminopurine riboside]: inhibited
- Nc1ncnc2c1ncn2[C@H]1C[C@H](O)[C@@H](CO)O1: inhibited

growth of plant cells in presence of compound in culture medium for plant cells, such as soybean (SB-1), tobacco and Brassica sp. with input OC[C@H]1O[C@@H](n2cnc3c(Cl)ncnc32)[C@H](O)[C@@H]1O [6-chloropurine riboside] equals inhibited

* * *

test system: tobacco (Nicotiana tabacum cv. Xenthi) leaf explants; experiment: Effect on growth of tobacco leaf explants (fresh weight increase); assay type: cell-based; details: 80 μM; average after 3 weeks in culture
Measured metric: Increase in Fresh Weight (g)
Give the value, in units of g, as a plain number.

• Nc1ncnc2c1ncn2[C@@H]1O[C@H](CO)[C@@H](O)[C@@H]1O = 0.05
• Nc1ncnc2c1ncn2[C@H]1C[C@H](O)[C@@H](CO)O1 = 0.96
• Nc1ncnc2c1ncn2[C@@H]1O[C@H](CO)C[C@H]1O [Cordycepin, 3'-deoxyadenosine] = 0.02

Given item Nc1ncnc2c1ncn2[C@@H]1O[C@H](CO)[C@@H](O)[C@H]1O , the value recorded as its Increase in Fresh Weight is 0.81
